Listed compounds paired with reported log fold change Tl+ flux
- Tested on: R275C/Slo1WT/beta2
- PROCEDURE SUMMARY: modulators of BK channel variants, profiling panel, selectivity assay, cell-based, U2OS BacMam, thallium flux, beta subunits (AID 1259406);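 further: initial slope of Thallos dye fluorescence rise after thallium is added; log ratio against the mean of 0.3% DMSO vehicle wells on the same plate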
- ASSAY CONTEXT: at 30 µM
ASSAY METRIC: log fold change Tl+ flux

>>> assay_result("CN(C)[C@@H]1C(=O)C(C(N)=O)=C(O)[C@@]2(O)C(=O)C3=C(O)c4c(O)cccc4[C@@](C)(O)[C@H]3[C@H](O)[C@@H]12")
-0.0058
>>> assay_result("O=c1c2ccccc2[nH]c(=S)n1-c1ccccc1")
-0.0521
>>> assay_result("O=C1CN=C(c2ccccc2)c2cc([N+](=O)[O-])ccc2N1")
0.00947
>>> assay_result("COc1ccc(CCN)cc1OC")
-0.0122
>>> assay_result("COc1ccc2[nH]cc(C3=CCNCC3)c2c1")
0.242
>>> assay_result("CNCC(O)c1ccc(O)cc1 (stereo unspecified)")
0.0309

----------
- EXPERIMENTAL SYSTEM: 6-phosphogluconate dehydrogenase, decarboxylating (Homo sapiens)
- PROCEDURE SUMMARY: 6PGD enzyme inhibitors, primary screen, biochemical, human, recombinant enzyme, NADPH absorbance (AID 1159550)
- ASSAY CONTEXT: recombinant 6PGD, NADPH absorbance 341 nm; at 10 µM; hits give high values
In this section we review reported inhibition values for a set of molecules.
ASSAY METRIC: inhibition (%)

>>> assay_result("COc1ccc2c3c([nH]c2c1)C(C)=NCC3")
-10.2
>>> assay_result("COc1ccc2c(c1)[nH]c1c(C)nccc12")
-2.64
>>> assay_result("CCc1cccc(C)c1N(C(=O)CCl)C(C)COC (stereo not drawn)")
3.27
>>> assay_result("NC(=O)CN1CCCC1=O")
-18.4
>>> assay_result("Oc1ccc(Cl)cc1")
15
>>> assay_result("C[C@@H]([C@H](O)c1ccccc1)N(C)C")
4.3
>>> assay_result("NCCc1c[nH]c2ccccc12")
-12.7
>>> assay_result("Clc1ccc(Cl)cc1")
7.33

----------
- PROCEDURE SUMMARY: growth inhibition of DIPG glioma cells, dose response, cell-based, JHH-DIPG-1, MIPE4.0, CellTiter-Glo, qHTS (AID 1347062);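 on AC50: cells exposed to compound for two days before readout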
- ASSAY CONTEXT: JHH-DIPG-1 viability, CellTiter-Glo ATP luminescence
Inconclusive results are not listed. Activity calls are given as the source filed them. No cut-off is given here; in the data, nearly all actives have AC50 up to about 27 µM.
Outcome codes: t = active, f = inactive

>>> class_name("Cc1nc(-c2ccc(-c3ccc(C(=O)N4CCc5cc6c(cc54)C4(CCN(C)CC4)CO6)cc3)c(C)c2)no1")
"f"
>>> class_name("CC1=C(O)C(=O)C=C2C1=CC=C1[C@@]2(C)CC[C@@]2(C)[C@@H]3C[C@](C)(C(=O)O)CC[C@]3(C)CC[C@]12C")
"t"
>>> class_name("CO[C@H]1CCC(O[C@H]2C[C@H]([C@]3(C)CC[C@]4(C[C@H](O)[C@@H](C)[C@@H]([C@@H](C)/C=C(\\C)C(=O)[C@H](C)C[C@H](C)C(=O)O)O4)O3)O[C@]3(O[C@@H]([C@H]4O[C@@](O)(CO)[C@H](C)C[C@@H]4C)C[C@@H]3C)[C@@H]2C)O[C@@H]1C (stereo partly specified)")
"t"
>>> class_name("C[C@]12CC[C@H]3[C@@H](CCC4=CC(=O)CC[C@@H]43)[C@@H]1CC[C@@H]2OC(=O)CCc1ccccc1")
"f"
>>> class_name("c1ccc(CCCN2CCN(CCOC(c3ccccc3)c3ccccc3)CC2)cc1")
"t"
>>> class_name("C[C@@]12OC(=O)[C@]1([C@@H](O)[C@@H]1C=CCCC1)NC(=O)[C@@H]2CCCl")
"t"
>>> class_name("O=[N+]([O-])c1ncc[nH]1")
"f"
>>> class_name("CN(C)[C@@H]1C(=O)C(C(N)=O)=C(O)[C@@]2(O)C(=O)C3=C(O)c4c(O)cccc4[C@@](C)(O)[C@H]3[C@H](O)[C@@H]12")
"f"
>>> class_name("CN1C(=O)CCS(=O)(=O)C1c1ccc(Cl)cc1 (stereo unspecified)")
"f"
>>> class_name("O=C(O)C(=O)c1cn(Cc2ccccc2)c2ccc(-c3ccc(OC(F)(F)F)cc3)cc12")
"f"
>>> class_name("C[C@](O)(COc1ccc(C#N)cc1)C(=O)Nc1ccc(C#N)c(C(F)(F)F)c1")
"f"
>>> class_name("CC(NC(C)(C)C)C(=O)c1cccc(Cl)c1 (stereo unspecified)")
"f"
>>> class_name("CCOP(=O)(OCC)C(C)NC(=O)N(CCCl)N=O (stereo unspecified)")
"f"
>>> class_name("C[C@](O)(CS(=O)(=O)c1ccc(F)cc1)C(=O)Nc1ccc(C#N)c(C(F)(F)F)c1")
"t"
>>> class_name("Cc1c(N)nc([C@H](CC(N)=O)NC[C@@H](N)C(N)=O)nc1C(=O)N[C@H](C(=O)N[C@@H](C)[C@H](O)[C@@H](C)C(=O)N[C@@H](C(=O)NCCc1nc(-c2nc(C(=O)NCCC[S+](C)C)cs2)cs1)[C@@H](C)O)C(O[C@H]1O[C@H](CO)[C@H](O)[C@@H](O)[C@H]1O[C@H]1O[C@H](CO)[C@@H](O)[C@H](OC(N)=O)[C@@H]1O)c1cnc[nH]1 (stereo partly specified)")
"f"
>>> class_name("c1ccc2c(CN3CCNCC3)cccc2c1")
"f"

From: PubChem BioAssay
